Origin of measurements: PubChem BioAssay AID256

Measured T/C by item
Tested on: CD2F1 mice, L1210 leukemia ip, survival T/C
Assay: NCI In Vivo Anticancer Drug Screen. Data for tumor model L1210 Leukemia (intraperitoneal) in CD2F1 (CDF1) mice
Settings: endpoint: mean survival time; dose: 100.0 mg/kg/injection; schedule: Q04DX003 (ip); vehicle: saline with Tween-80; higher = longer survival
Method: The antitumor activity of compounds was measured in mice bearing transplantable tumors. Survival or tumor size were measured and the results are expressed as the measurement made in the treated group (T) divided by the measurement made in the vehicle treated control group (C). The tumor model used in this assay is L1210 Leukemia (intraperitoneal) in CD2F1 (CDF1) mice
Toxic doses and inconclusive results are not listed.

Examples with answers:
* O=S(=O)(Nc1ccc(O)cc1)c1ccccc1 | 101 % of control
* Brc1sccc1-c1cccc2ccccc12 | 104 % of control
* Clc1ccc2ccccc2c1C(Cl)Cl | 91 % of control

Entry `OCC(Cl)(Cl)Cl` has what T/C?
93 % of control

Entry O=C(NC(CSCc1ccccc1)C(=O)O)OCc1ccccc1 (stereo not given) : reported T/C = ?
93 % of control

---

system: CD2F1 mice, L1210 leukemia ip, survival T/C; assay: NCI In Vivo Anticancer Drug Screen. Data for tumor model L1210 Leukemia (intraperitoneal) in CD2F1 (CDF1) mice; conditions: endpoint: mean survival time; dose: 400.0 mg/kg/injection; schedule: Q01DX001 (ip); vehicle: saline with Tween-80; higher = longer survival
Toxic doses and inconclusive results are not listed.
# T/C annotations

• Cc1ccc(N2C(=O)CSC2=S)c(Br)c1 = 106 % of control
• CCCCCCC(C)(O)CCCCCC = 101 % of control
• FC(F)(F)Cc1ccccc1 = 105 % of control

Returns the measured T/C for the input molecule. Input: `CCOC(=O)c1ccc(NC(=O)Nc2cccc(NC(C)=O)c2)cc1`
92 % of control

Which value of T/C has been reported for `COc1cccc(OC)c1C1=CCCCCC1` in the records?
93 % of control

Look up T/C for this molecule: `N#Cc1cc(Cl)c(OCc2ccccc2)c(Cl)c1`
101 % of control

# get_value(readout='T/C', item= `c1ccc2cc(OCCOCCOc3ccc4ccccc4c3)ccc2c1` )
97 % of control

What T/C value was documented for this molecule, `c1ccc2nc3c(nc2c1)[nH]c1ccccc13` ?
89 % of control

Which T/C reading was recorded for the molecule `CCCCOC(=O)/C=C(\CC(=O)OCCCC)C(=O)OCCCC` ?
103 % of control

For the molecule `COc1cc2c3c(c1)/C(=N\NC(N)=S)CCN3CCC2` , what T/C is on record?
93 % of control

Given the entry `O=C(/C=C/c1ccccc1)NC(=S)NCc1ccccc1Cl` , report its measured T/C.
95 % of control

---

Below: a set of entries, each annotated with reported T/C.
tested on: CD2F1 mice, L1210 leukemia ip, survival T/C; assay: NCI In Vivo Anticancer Drug Screen. Data for tumor model L1210 Leukemia (intraperitoneal) in CD2F1 (CDF1) mice; details: endpoint: mean survival time; dose: 400.0 mg/kg/injection; schedule: Q04DX003 (ip); vehicle: saline with Tween-80; higher = longer survival
Inconclusive results and toxic doses are left out.

Recorded T/C, per entry:
- Oc1ccccc1C=Nc1ccc(N=Cc2ccccc2O)cc1: 100 % of control
- CC1=CS(=O)(=O)CC(=O)N1: 95 % of control
- COC(=O)C(Br)C(Br)c1ccccc1 (stereo not drawn): 106 % of control
- CC(c1ccccc1)C(OC(=O)c1ccc([N+](=O)[O-])cc1)c1ccccc1 (stereo not drawn): 98 % of control
- CCCCCCCCCCC(O)CCCCCCCCCC: 90 % of control

Any idea what T/C came out for `CCOC(=O)Cc1nnc(N)s1` on CD2F1 mice, L1210 leukemia ip, survival T/C?
102 % of control

For CD2F1 mice, L1210 leukemia ip, survival T/C, provide T/C of `O=S(=O)(Nc1ccccn1)c1ccc(Cl)cc1` please.
90 % of control

Under CD2F1 mice, L1210 leukemia ip, survival T/C: T/C value of `CCCCN(c1ccccc1)S(=O)(=O)c1ccc(Br)cc1` ?
101 % of control

Could you share what T/C was measured for `CCCSC(=O)Nc1cccc(OC(=O)NC)c1` , tested on CD2F1 mice, L1210 leukemia ip, survival T/C?
99 % of control

Request: T/C, test system CD2F1 mice, L1210 leukemia ip, survival T/C, entry `CNS(=O)(=O)c1ccc2c(c1)[nH]c(=S)n2C`
90 % of control

API: value(readout= T/C, system= CD2F1 mice, L1210 leukemia ip, survival T/C, query= `Cc1ccc([N+](=O)[O-])cc1NC(=O)Oc1ccc(Cl)cc1` )
88 % of control

Provide value of T/C for this record tested with CD2F1 mice, L1210 leukemia ip, survival T/C: OC1CCCCO1 (stereo not drawn)
103 % of control

Request: T/C, test system CD2F1 mice, L1210 leukemia ip, survival T/C, entry `O=C(O)c1ccccc1C(=O)c1ccc(Cl)cc1`
95 % of control

---

Listed here are compounds together with their documented T/C.
test system: CD2F1 mice, L1210 leukemia ip, survival T/C; assay: NCI In Vivo Anticancer Drug Screen. Data for tumor model L1210 Leukemia (intraperitoneal) in CD2F1 (CDF1) mice; settings: endpoint: mean survival time; dose: 400.0 mg/kg/injection; schedule: Q01DX009 (ip); vehicle: saline with Tween-80; higher = longer survival
Toxic doses and inconclusive results are not listed.

Some compounds with known T/C results, for comparison:
* O=C(O)/C=C/C(=O)Nc1cccc2cccnc12 | 100 % of control
* O=C(O)C1=CCC=CC1 | 106 % of control

Record request: T/C value, item `c1ccc2c(c1)Cc1nc3ccccc3nc1-2`
97 % of control

Could you tell me which T/C is on file for `O=C(O)CNCP(=O)(O)O` ?
89 % of control

Need T/C of `O=C(Oc1ccccc1Cl)c1ccccc1` , thanks.
108 % of control

Entry `COC(=O)Nc1cccc(OC(=O)N(C)C)c1` : reported T/C = ?
96 % of control

# lookup: T/C of `COc1ccc(NC(=O)Nc2cc(C(F)(F)F)ccc2Cl)cc1`
86 % of control

---

T/C values by entry
test system: CD2F1 mice, L1210 leukemia ip, survival T/C; experiment: NCI In Vivo Anticancer Drug Screen. Data for tumor model L1210 Leukemia (intraperitoneal) in CD2F1 (CDF1) mice; conditions: endpoint: mean survival time; dose: 6.25 mg/kg/injection; schedule: Q01DX009 (ip); vehicle: saline with Tween-80; higher = longer survival
Toxic doses and inconclusive results are not listed.

Consider the following illustrative entries.
* CN(C)CCCN=Cc1ccccc1O.CN(C)CCCN=Cc1ccccc1O.[Ni+2] | 100 % of control
* CCCCC(CCCC)c1ccccn1 | 91 % of control
* COc1ccc(N=NNc2ccc(OC)cc2)cc1 | 100 % of control
* O=C1C2CC=CCC2C(=O)N1SC(Cl)(Cl)Cl (configuration not stated) | 93 % of control
* CCCCCCCCCCCCNC(=O)C[n+]1cccc(C(=O)Nc2ccccc2)c1 | 97 % of control

Could you tell me which T/C is on file for `COc1ccc2[nH]c3c(C)c4cc[n+](C)cc4c(C)c3c2c1` ?
122 % of control

Suppose we examine the compound `CC(C)(C#N)Nc1ccccc1` ; what T/C value has been reported?
91 % of control

---

tested on: CD2F1 mice, L1210 leukemia ip, survival T/C; test: NCI In Vivo Anticancer Drug Screen. Data for tumor model L1210 Leukemia (intraperitoneal) in CD2F1 (CDF1) mice; conditions: endpoint: mean survival time; dose: 200.0 mg/kg/injection; schedule: Q01DX009 (ip); vehicle: saline with Tween-80; higher = longer survival
Inconclusive results and toxic doses are left out.
Entries annotated with measured T/C

* OC(c1ccccc1)(c1ccccc1)c1ccccc1Cl | 101 % of control
* CCC1(CC)C(=O)C=CNC1=O | 103 % of control
* COc1cc([N+](=O)[O-])ccc1NC(=O)OC/C=C/c1ccccc1 | 91 % of control

Requested read-out T/C, target or system CD2F1 mice, L1210 leukemia ip, survival T/C, entry `COc1ccc(COC(=O)Oc2ccc(C)cc2)cc1OC`
102 % of control

Fill in the recorded T/C for this molecule, with CD2F1 mice, L1210 leukemia ip, survival T/C as test system: `CCN(Cc1cccc(S(=O)(=O)O)c1)c1ccc(C(=C2C=CC(=[N+](CC)Cc3cccc(S(=O)(=O)O)c3)C=C2)c2ccc(S(=O)(=O)O)cc2)cc1`
97 % of control

Value wanted: T/C (CD2F1 mice, L1210 leukemia ip, survival T/C) of entry `O/N=C1\C=C2C/C(=N/O)C=C2C1`
96 % of control

Checklist item: T/C tested on CD2F1 mice, L1210 leukemia ip, survival T/C, entry COCCCNC1=C(C#N)C(=O)NC(c2cccc([N+](=O)[O-])c2)S1 (stereo not given) , value?
102 % of control

Hi! What's the reported T/C for `NNC(=O)c1cc2ccccc2cc1O` on CD2F1 mice, L1210 leukemia ip, survival T/C?
86 % of control

State its T/C on CD2F1 mice, L1210 leukemia ip, survival T/C: COC(=O)C1=C(NC(=O)Nc2ccc(OC)cc2)OC(C)(C)C1c1ccc(Cl)cc1 (stereo not given)
93 % of control

Tell me reported T/C for `O=C(CNC(=O)Nc1cccc([N+](=O)[O-])c1)NNC(=O)Nc1ccccc1F` , tested with CD2F1 mice, L1210 leukemia ip, survival T/C.
88 % of control

Value wanted: T/C (CD2F1 mice, L1210 leukemia ip, survival T/C) of entry `C=CCSc1cccc2ccccc12`
96 % of control

Item: `O=C(C1=CC=CC1=P(c1ccccc1)(c1ccccc1)c1ccccc1)C(Cl)(Cl)Cl` Test system: CD2F1 mice, L1210 leukemia ip, survival T/C Read-out: T/C Value: ?
107 % of control

Which T/C is reported with CD2F1 mice, L1210 leukemia ip, survival T/C for this entry: `O=C(O)CCC(=O)CCC(=O)c1ccccc1` ?
98 % of control
